Origin of the recorded values: patent US3956328A

Assay: Acute oral toxicity in mice
Format: in vivo
Settings: mouse, in vivo, po, male ddN mice; confidence limit 507-768 mg/kg
Experimental Readout: LD50
Write the numeric value and follow it with the unit.

Data request: Look up LD50: c1ccc(C(c2ccccc2)N2CCN(CCCc3nc4ccccn4n3)CC2)cc1
Data returned: 625 mg/kg
